test system: fli1:EGFP zebrafish embryos (intersegmental vessel growth); assay: fli1:EGFP zebrafish embryo angiogenesis assay; type: in vivo; set-up: concentration or dose not given beside the values; details: embryos alive after 24 hours of exposure
EXPERIMENTAL READOUT: fli1:EGFP angiogenesis n (survived/tested)

{"columns": ["COMPOUND", "RESULT"],
 "data": [
  ["CC(N1Cc2c(N)cccc2C1=O)C12CC3CC(CC(C3)C1)C2 (stereo not drawn)", "7/8"],
  ["O=C1c2cccc([N+](=O)[O-])c2CN1C12CC3CC(CC1C3)C2", "2/11"],
  ["Nc1cccc2c1CN(C1C3CC4CC(C3)CC1C4)C2=O (stereo not drawn)", "3/12"],
  ["FC(F)(F)c1ccnc(/N=C2/c3ccccc3CN2c2cc(C(F)(F)F)ccn2)c1", "13/22"],
  ["O=C1c2cccc([N+](=O)[O-])c2CN1C1C2CC3CC(C2)CC1C3 (stereo not drawn)", "18/27"],
  ["CC(C)Nc1ccc2c(c1)C(=O)N(C1CC=CNC1=O)C2 (stereo not drawn)", "14/30"],
  ["O=C1CCC(N2C(=O)c3cccnc3C2=O)C(=O)N1 (stereo not drawn)", "8/12"],
  ["O=C1c2cccc([N+](=O)[O-])c2C(=O)N1c1nc2ccc(C(F)(F)F)cc2s1", "3/10"],
  ["Nc1cccc2c1CN(C13CC4CC(CC(C4)C1)C3)C2=O", "43/62"]
]}
